Assay: Spectroscopic properties of CF library (absorbance, emission, quantum yield, extinction coefficient)
Assay type: physicochemical
Settings: 100 μM in ethanol, reference fluorescein
Reported values of QY (Φ) for individual entries

| MOLECULE | QY (Φ) |
| --- | --- |
| CC(C)NC(=O)c1ccc(-c2c3cc(Cl)c(=O)cc-3oc3cc(O)c(Cl)cc23)cc1 | 0.57 |
| O=C(NCCc1ccccc1-c1ccccc1)c1ccc(-c2c3cc(Cl)c(=O)cc-3oc3cc(O)c(Cl)cc23)cc1 | 0.30 |
| CCCCCNC(=O)c1ccc(-c2c3cc(Cl)c(=O)cc-3oc3cc(O)c(Cl)cc23)cc1 | 0.23 |
| CC(C)CC(C)NC(=O)c1ccc(-c2c3cc(Cl)c(=O)cc-3oc3cc(O)c(Cl)cc23)cc1 (stereo not shown) | 0.38 |

----------
Reported values of QY (Φ) for individual entries
Assay: Spectroscopic properties of CF library (absorbance, emission, quantum yield, extinction coefficient)
Assay type: physicochemical
Details: 100 μM in ethanol, reference fluorescein
MEASURED_ATTRIBUTE: QY (Φ)

| MOLECULE | EXPERIMENTAL_RESULT |
| --- | --- |
| CCCCCCCCNC(=O)c1ccc(-c2c3cc(Cl)c(=O)cc-3oc3cc(O)c(Cl)cc23)cc1 [CF-C3] | 0.37 |
| COc1cccc(CCNC(=O)c2ccc(-c3c4cc(Cl)c(=O)cc-4oc4cc(O)c(Cl)cc34)cc2)c1OC [CF-E7] | 0.46 |
| CC(C)OCCCNC(=O)c1ccc(-c2c3cc(Cl)c(=O)cc-3oc3cc(O)c(Cl)cc23)cc1 [CF-F9] | 0.34 |
| CCC(NC(=O)c1ccc(-c2c3cc(Cl)c(=O)cc-3oc3cc(O)c(Cl)cc23)cc1)c1ccccc1 (stereo not shown) [CF-A3] | 0.40 |
| CC(C)CCNC(=O)c1ccc(-c2c3cc(Cl)c(=O)cc-3oc3cc(O)c(Cl)cc23)cc1 [CF-C8] | 0.68 |
| O=C(NCCCCc1ccccc1)c1ccc(-c2c3cc(Cl)c(=O)cc-3oc3cc(O)c(Cl)cc23)cc1 [CF-D11] | 0.44 |
| CCC(C)NC(=O)c1ccc(-c2c3cc(Cl)c(=O)cc-3oc3cc(O)c(Cl)cc23)cc1 (stereo not shown) [CF-G8] | 0.29 |
| COc1ccc(CCNC(=O)c2ccc(-c3c4cc(Cl)c(=O)cc-4oc4cc(O)c(Cl)cc34)cc2)cc1 [CF-C5] | 0.63 |
| O=C(NCCCN1CCCC1=O)c1ccc(-c2c3cc(Cl)c(=O)cc-3oc3cc(O)c(Cl)cc23)cc1 [CF-D2] | 0.61 |
| O=C(NC1CCCCCC1)c1ccc(-c2c3cc(Cl)c(=O)cc-3oc3cc(O)c(Cl)cc23)cc1 [CF-C9] | 0.50 |
| Cc1cccc(CN(C)C(=O)c2ccc(-c3c4cc(Cl)c(=O)cc-4oc4cc(O)c(Cl)cc34)cc2)c1 [CF-D7] | 0.54 |
| CCCCCCCCCCCCCCCCCCN(C)C(=O)c1ccc(-c2c3cc(Cl)c(=O)cc-3oc3cc(O)c(Cl)cc23)cc1 [CF-H11] | 0.32 |
| CN(C(=O)c1ccc(-c2c3cc(Cl)c(=O)cc-3oc3cc(O)c(Cl)cc23)cc1)C1CCCCC1 [CF-A10] | 0.63 |
